- assayed-system: T1, cMet on human HT29 CRC cells (human (endogenous in HT29), UniProt P08581 25-1390)
- T1 construct: cMet, transmembrane tyrosine kinase receptor (hepatocyte growth factor receptor), human; Alpha and beta chains are cut from one precursor; written as one chain; also called HT29 cells (cMet+); source: endogenous, on HT29 cells
- T1 sequence (P08581 25-1390): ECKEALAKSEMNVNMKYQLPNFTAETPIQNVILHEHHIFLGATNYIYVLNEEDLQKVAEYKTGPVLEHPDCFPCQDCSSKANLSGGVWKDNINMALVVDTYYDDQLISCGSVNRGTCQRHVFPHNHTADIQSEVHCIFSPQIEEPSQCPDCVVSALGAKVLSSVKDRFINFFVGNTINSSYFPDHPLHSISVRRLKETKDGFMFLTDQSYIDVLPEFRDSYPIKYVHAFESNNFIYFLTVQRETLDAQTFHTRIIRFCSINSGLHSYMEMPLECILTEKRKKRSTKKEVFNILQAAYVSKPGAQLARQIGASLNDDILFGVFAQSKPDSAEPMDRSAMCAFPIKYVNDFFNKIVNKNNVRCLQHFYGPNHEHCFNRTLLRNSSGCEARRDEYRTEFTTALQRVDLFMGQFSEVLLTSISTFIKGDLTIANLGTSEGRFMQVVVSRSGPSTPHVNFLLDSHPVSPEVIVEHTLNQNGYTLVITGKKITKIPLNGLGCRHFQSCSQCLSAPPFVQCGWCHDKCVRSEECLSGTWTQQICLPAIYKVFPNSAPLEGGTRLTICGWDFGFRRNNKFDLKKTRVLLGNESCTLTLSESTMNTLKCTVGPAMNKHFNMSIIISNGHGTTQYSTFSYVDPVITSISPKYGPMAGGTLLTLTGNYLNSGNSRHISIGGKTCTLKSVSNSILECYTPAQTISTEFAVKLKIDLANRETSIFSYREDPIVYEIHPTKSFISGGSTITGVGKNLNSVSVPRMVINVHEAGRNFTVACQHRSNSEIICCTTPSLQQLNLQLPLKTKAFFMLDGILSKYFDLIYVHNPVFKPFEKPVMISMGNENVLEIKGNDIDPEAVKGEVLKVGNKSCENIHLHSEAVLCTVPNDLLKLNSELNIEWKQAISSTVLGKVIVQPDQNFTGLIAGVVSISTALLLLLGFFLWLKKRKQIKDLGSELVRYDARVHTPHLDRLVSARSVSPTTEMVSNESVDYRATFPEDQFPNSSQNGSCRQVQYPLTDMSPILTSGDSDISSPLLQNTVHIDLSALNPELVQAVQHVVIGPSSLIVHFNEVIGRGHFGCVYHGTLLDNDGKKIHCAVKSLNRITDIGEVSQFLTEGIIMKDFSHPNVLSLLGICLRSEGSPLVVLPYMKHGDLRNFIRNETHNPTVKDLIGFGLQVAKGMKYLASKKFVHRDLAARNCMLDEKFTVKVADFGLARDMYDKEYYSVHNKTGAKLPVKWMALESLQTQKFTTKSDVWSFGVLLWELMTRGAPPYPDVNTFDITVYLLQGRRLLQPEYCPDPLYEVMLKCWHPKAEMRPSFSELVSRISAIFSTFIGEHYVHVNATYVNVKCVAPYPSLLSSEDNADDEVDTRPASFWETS
- assay: flow cytometry on cells; HT29 cells incubated with peptide at 0-200 nM for 1 hour at 4 °C; apparent dissociation constant by nonlinear regression
- condition-label: one partner purified
Where no end group is shown, it is not given here.
property-label: Kd (nM)
Express it in nM; write the number only.

Recorded Kd (binder QQTNWSLGGGSK-{Cy5.5} (not fully specified, heptapeptide selected by phage display (Ph.D.-7 library) against the extra-cellular domain of cMet; linker between the peptide and Cy5.5; also called QQTNWSL; cMet peptide; source: synthetic peptide (Fmoc solid-phase synthesis, purified with HPLC)) [QQT*-Cy5.5] ): 57
